The reported numbers originate from patent US10688111B2.

assay-remarks: physchem
condition-summary: pH 7.6, aqueous with cosolvent or surfactant or cyclodextrin, Solubility

>  <compound>
COc1ccc(Cl)cc1C(=O)NCCc1ccc(S(=O)(=O)NC(=O)NC2CCCCC2)cc1 [Glibenclamide]

>  <solubility>
0.6 mg/mL

$$$$

====

assay-remarks: physchem
condition-summary: pH 6.9, aqueous with cosolvent or surfactant or cyclodextrin, Solubility
quantity-kind: solubility (µg/mL)

>  <molecule>
COc1ccc(Cl)cc1C(=O)NCCc1ccc(S(=O)(=O)NC(=O)NC2CCCCC2)cc1 [Glibenclamide]

>  <quantity-kind>
solubility

>  <unit-string>
µg/mL

>  <observed-value>
90

$$$$
